- assay_info: Pharmacokinetic study, IV and PO, plasma, brain and liver
- Assay type: in vivo, mouse
- details: male, C57BL/6J, mouse, plasma, po, 50 mg/kg, PO 50 mg/kg, 240 min; read-out: Plasma concentration, Mean
observation_type: concentration at 240 min (ng/mL)
Numbers only, in ng/mL.

concentration at 240 min for Cc1ccc(-c2cn3cccc(C)c3n2)cc1S(=O)(=O)N1CCNCC1 [YB-537] is 151

###

- assay_info: Pharmacokinetic study, IV and PO, plasma, brain and liver
- Format: in vivo, mouse
- details: male, C57BL/6J, mouse, plasma, iv, 10 mg/kg, IV 10 mg/kg, 5 min
observation_type: concentration at 5 min (ng/mL)
Numbers only, in ng/mL.

concentration at 5 min for "Cc1ccc(-c2cn3cccc(C)c3n2)cc1S(=O)(=O)N1CCNCC1" is 2010
